Field pKi: reported value for 5-hydroxytryptamine receptor 7 (Homo sapiens, UniProt P34969); entries drawn from several documents.
Conceptually, pKi converts a concentration in mol/L into minus its log10.

Query :: Give the observed pKi of `Cn1c(=O)cnn(CCCCN2CCN(c3ccccc3OCCF)CC2)c1=O` for 5-hydroxytryptamine receptor 7 (Homo sapiens, UniProt P34969).
Result :: 7.76

Query :: Give the observed pKi of `O=c1[nH]c2ccccc2n1CCCCCN1CCN(c2ccc(Cl)cc2)CC1` for 5-hydroxytryptamine receptor 7 (Homo sapiens, UniProt P34969).
Result :: 8.15

Query :: Give the observed pKi of `COc1ccccc1N1CCN(CCCCn2cnc3c(cnc4ccccc43)c2=O)CC1` for 5-hydroxytryptamine receptor 7 (Homo sapiens, UniProt P34969).
Result :: 6.56

Query :: Give the observed pKi of CCC1(CCCCN2CCN(c3ccc(Cl)cc3)CC2)C(=O)Nc2c1cc(Cl)c(F)c2Cl (stereo not given) for 5-hydroxytryptamine receptor 7 (Homo sapiens, UniProt P34969).
Result :: 7.02

Query :: Give the observed pKi of CC(NCCC(Cc1ccccc1)c1ccco1)c1ccc(Cl)cc1 (stereo not given) for 5-hydroxytryptamine receptor 7 (Homo sapiens, UniProt P34969).
Result :: 5.42
